Data provenance: patent US20200297760A1

Target: HLA-A*02:01 (human)
Assay: REVEAL MHC-peptide binding assay, recombinant HLA
Conditions: remark: other sources report otherwise
Readout label: In Vitro Score (% of positive control peptide)
// return just the number, without any unit appended

[
  {
    "Binder": "IFWVSRGRK",
    "Measured result": 1.3
  },
  {
    "Binder": "VAFIIFWVK",
    "Measured result": 0.7
  },
  {
    "Binder": "IFWVKRGSK",
    "Measured result": 2.4
  }
]

Now turn to the next binder.
In Vitro Score (% of positive control peptide) for `IFWVQRGAK` ? 11.7
